# ASSAY NAME: in vitro
# TEST PARAMETERS: rat, gh3-tre-luc cells, AC50 (uM) modified / 1000
Where a name gives a salt, the structure may show the parent alone.
For each of the compounds below, state its CC50 at 24 h.

stdin: Query (compound): CCCCCCCCCCCCCC[P+](CCCCCC)(CCCCCC)CCCCCC [Trihexyltetradecylphosphonium chloride] ; field requested: CC50 at 24 h
stdout: 5.15 µM

stdin: Note, next up: C=CC1CC2C=CC1C2 (stereo not shown) [5-Vinyl-2-norbornene]
stdout: > 90 µM

stdin: Quick one: COc1ccccc1N1CCN(CCCC(=O)c2ccc(F)cc2)CC1 [Fluanisone]
stdout: > 50 µM

stdin: Next compound: C[N+]12CCC(CC1)C(OC(=O)C(O)(c1ccccc1)c1ccccc1)C2 (stereo not shown) [Clidinium bromide]
stdout: > 20 µM

stdin: Would you mind doing CCCCCCCCC(CO)CCCCCC (stereo not shown) [2-Hexyl-1-decanol] as well?
stdout: > 90 µM

stdin: Then what about the compound COc1cc(Cl)ccc1Oc1ccc(Cl)cc1Cl [Methyl triclosan] ?
stdout: 60.4 µM

stdin: Ok, now O=C1c2cccc(O)c2C(=O)c2c(O)cc(CO)cc21 [Aloe-emodin]
stdout: > 90 µM

stdin: Same lookup for CCCCOCC1CO1 (stereo not shown) [Butyl glycidyl ether] , please.
stdout: > 90 µM

stdin: CNC[C@H](O)c1cccc(O)c1 [Phenylephrine hydrochloride] , same question.
stdout: > 90 µM

stdin: Next: Cc1c(O)cccc1O [2-Methyl-1,3-benzenediol]
stdout: > 90 µM

###

I'd appreciate it if you could supply CC50 at 24 h values for the items below.
# ASSAY NAME: in vitro
# TEST PARAMETERS: rat, gh3-tre-luc cells, AC50 (uM) modified / 1000
Give just the numeric value; µM need not be written.

stdin: CC50 at 24 h lookup needed for N#Cc1sc2c(=O)c3ccccc3c(=O)c=2sc1C#N , thanks.
stdout: 29.4

stdin: Please do the same for CCN(CC)CC#CCOC(=O)C(O)(c1ccccc1)C1CCCCC1 (stereo not drawn) [Oxybutynin chloride] as well.
stdout: 15.3

stdin: Moving on to CSc1ccc2c(c1)C(N1CCN(C)CC1)Cc1ccccc1S2 (stereo not drawn) [Metitepine]
stdout: 5.16

stdin: Queued: CN1C(=O)/C(=N\NC(N)=S)c2ccccc21
stdout: 34.2

stdin: Record: CC(C)C(=O)OCC(=O)[C@@]12O[C@H](C3CCCCC3)O[C@@H]1C[C@H]1[C@@H]3CCC4=CC(=O)C=C[C@]4(C)[C@H]3[C@@H](O)C[C@@]12C [Ciclesonide]
stdout: 17.7

###

Please provide measured CC50 at 24 h for the entries that follow.
# ASSAY NAME: in vitro
# TEST PARAMETERS: rat, gh3-tre-luc cells, AC50 (uM) modified / 1000
Where a name gives a salt, the structure may show the parent alone.

stdin: Could you share which CC50 at 24 h value was measured for CCCCO ?
stdout: > 90 µM

stdin: Further, for CCCCS ?
stdout: > 90 µM

stdin: Now the same for Nc1ccccn1
stdout: > 90 µM

stdin: Query C=C1c2cccc(O)c2C(O)=C2C(=O)[C@]3(O)C(O)=C(C(N)=O)C(=O)[C@@H](N(C)C)[C@@H]3[C@@H](O)[C@H]12 [Methacycline hydrochloride] next
stdout: > 20 µM

stdin: Request: CC(C)c1ccc2ncccc2c1
stdout: > 90 µM

stdin: What about C=CCOC(Cn1ccnc1)c1ccc(Cl)cc1Cl (stereo not drawn) ?
stdout: 53.5 µM

stdin: Please give the result for CCCN(CCC)CCc1cccc2c1CC(=O)N2 too.
stdout: > 50 µM

stdin: Further, for COc1ccc(/C=C/C(=O)c2ccc(OC)cc2OC)cc1 ?
stdout: 46.1 µM

stdin: Same lookup for CN1C(C(=O)Nc2ccccn2)=C(O)c2sc(Cl)cc2S1(=O)=O , please.
stdout: > 50 µM

stdin: Note, next up: CCCCCCCCCCCCN(CCO)CCO
stdout: 14.8 µM

stdin: How about Clc1ccc(C(c2ccccc2Cl)C(Cl)(Cl)Cl)cc1 (stereo not drawn) ?
stdout: 34 µM

stdin: Further, for C[N+](C)(C)CC1CO1 (stereo not drawn) [Glycidyl trimethylammonium chloride] ?
stdout: > 90 µM

stdin: Another compound to check: Cc1cccc(C)c1NC(=O)CC12CCCN1CCC2 [Pilsicainide]
stdout: > 50 µM

stdin: Follow-up item: CCN1CCc2nc(N)oc2CC1 [Azepexole hydrochloride]
stdout: > 50 µM

stdin: Follow-up item: O=C(O)[C@@H]1[C@H]2C[C@H]3c4[nH]c5ccccc5c4CCN3C[C@@H]2CC[C@@H]1O [Yohimbic acid monohydrate]
stdout: > 20 µM

stdin: Same read-out for BrCc1ccc(Br)cc1 [4-Bromobenzyl bromide] ?
stdout: > 90 µM

stdin: Same thing, different compound: Cc1ccc(Cl)c(O)c1
stdout: > 50 µM

stdin: Queued: Nc1cc[nH]c(=O)n1
stdout: > 90 µM

stdin: Now give it for Cc1cccc(C)c1NC(=O)c1cc(S(N)(=O)=O)c(Cl)cc1O [Xipamide] too.
stdout: > 50 µM

stdin: Now the compound O=C(O)C1=NN(c2ccc(S(=O)(=O)O)cc2)C(=O)C1N=Nc1ccc(S(=O)(=O)O)cc1 (stereo not drawn)
stdout: > 50 µM

stdin: Now consider CC(C)(C)c1ccccc1O and answer again.
stdout: > 90 µM

###

# ASSAY NAME: in vitro
# TEST PARAMETERS: rat, gh3-tre-luc cells, AC50 (uM) modified / 1000
Where a name gives a salt, the structure may show the parent alone.
TEST READOUT: CC50 at 24 h

stdin: Which value of CC50 at 24 h has been reported for CC(=O)c1ccc(C)cc1 in the records?
stdout: > 90 µM

stdin: Try OCC(CBr)(CBr)CBr next.
stdout: > 90 µM

stdin: Try CC1=C(CC(=O)O)c2cc(F)ccc2/C1=C\c1ccc(S(C)(=O)=O)cc1 next.
stdout: > 50 µM

stdin: Also, CC(C)NC(=O)N1CC(=O)N(c2cc(Cl)cc(Cl)c2)C1=O please.
stdout: > 90 µM

stdin: Proceed to S=P(N1CC1)(N1CC1)N1CC1
stdout: > 100 µM

stdin: What about C=CCC1=C(C)C(OC(=O)[C@@H]2[C@@H](C=C(C)C)C2(C)C)CC1=O (stereo partly shown) ?
stdout: 53.2 µM

stdin: // query: C=C(C)C(=O)OCC(C)O (stereo not shown) [2-Hydroxypropyl 2-methylacrylate]
stdout: > 90 µM

stdin: CCCCN(CCCC)CC(O)c1cc(Cl)cc2c1-c1ccc(Cl)cc1/C2=C/c1ccc(Cl)cc1 (stereo not shown) ?
stdout: 38.5 µM

stdin: Now consider CCOP(=S)(OCC)Oc1cc(C)nc(C(C)C)n1 .
stdout: > 90 µM

stdin: Also, CCCCCCCCCCCCCCNCCO please.
stdout: > 50 µM

stdin: # repeat for O=C(CS)Nc1ccccc1 [Thioglycolic acid anilide]
stdout: 33.8 µM

stdin: Continue with CCC(C)=O
stdout: > 90 µM

stdin: Same thing, different molecule: COc1c2occc2c(OC)c2c(=O)cc(C)oc12
stdout: > 20 µM

stdin: // same read-out, input: CC1(C)[C@H](C=C(Cl)Cl)[C@H]1C(=O)O[C@H](C#N)c1cccc(Oc2ccccc2)c1
stdout: > 50 µM

stdin: Moving on to CN[C@@H]1[C@H](O)[C@H](NC)[C@H]2O[C@@]3(O)C(=O)C[C@@H](C)O[C@H]3O[C@@H]2[C@H]1O [Spectinomycin dihydrochloride]
stdout: > 20 µM

stdin: Further, for CCC1NC(=O)c2cc(S(N)(=O)=O)c(Cl)cc2N1 (stereo not shown) ?
stdout: > 20 µM

stdin: Then this molecule: CO/N=C(\C(=O)N[C@@H]1C(=O)N2C(C(=O)O)=C(COC(N)=O)CS[C@H]12)c1ccco1
stdout: > 90 µM

stdin: Continue with CCCCCCCOC(=O)c1ccc(O)cc1
stdout: 47.8 µM

stdin: Now try Cn1c(=O)c2c(ncn2CCOC(=O)C(C)(C)Oc2ccc(Cl)cc2)n(C)c1=O [Etofylline clofibrate] .
stdout: > 50 µM

###

# ASSAY NAME: in vitro
# TEST PARAMETERS: rat, gh3-tre-luc cells, AC50 (uM) modified / 1000, Tox21_110001=Tox21_201505; viability, 1 nM T3 present, 24 h
TEST READOUT: CC50 at 24 h

stdin: Need CC50 at 24 h, item C1CC2OC2CC1C1CO1 (stereo not shown) [4-Vinyl-1-cyclohexene dioxide]
stdout: > 90 µM

###

# ASSAY NAME: in vitro
# TEST PARAMETERS: rat, gh3-tre-luc cells, AC50 (uM) modified / 1000, Tox21_110001=Tox21_200571; viability, 1 nM T3 present, 24 h
TEST READOUT: CC50 at 24 h (µM)
The answer is to be given in µM; state only the numeric part.

stdin: Entry BrC(Br)C(Br)(Br)Br has what CC50 at 24 h?
stdout: 24.2
